Test: oral absorbability test: urinary excretion in mice after oral administration
Type: in vivo
Settings: mouse, urine, dose: 50 mg/kg, read-out: Urinary excretion rate in mice after oral administration
OBSERVABLE: dose excreted
Hey, just the number and the unit after it is fine.

1) CCOC(=O)OC(C)OC(=O)C1=C(CSc2nc(C)ns2)CS[C@@H]2C(NC(=O)/C(=N\OC)c3cscn3)C(=O)N12 (some centres unmarked) : 32%

Shifting focus to the molecule that follows.
Sample CO/N=C(\C(=O)NC1C(=O)N2C(C(=O)OCc3oc(=O)oc3C)=C(CSc3ncns3)CS[C@H]12)c1cscn1 (some centres unmarked) ; dose excreted observed: 32%
